# Test system: Mycobacterium tuberculosis
# Experiment: Antitubercular activity against Mycobacterium tuberculosis H37Rv ATCC 27294 by BACTEC 960 assay
# Format: functional
Output: class label from MIC. Mapping: bucket A (below 0.2 µM), bucket B (0.2 µM to below 10 µM), bucket C (10 µM or more)

Reference set, count: 5
>  <Compound>
C=Cc1cc(C(=O)NN)ccn1

>  <Label class>
bucket C

$$$$
>  <Compound>
CCC(CC)NNC(=O)c1ccncc1

>  <Label class>
bucket C

$$$$
>  <Compound>
CC(C)CCOc1ccc(/C=N/NC(=O)c2ccncc2)cc1

>  <Label class>
bucket A

$$$$
>  <Compound>
CC(C)NNC(=O)c1ccncc1 [IPRONIAZID]

>  <Label class>
bucket B

$$$$
>  <Compound>
CC(C)COc1ccc(/C=N/NC(=O)c2ccncc2)cc1

>  <Label class>
bucket B

$$$$

Returns: class label. Input: CCC(C)NNC(=O)c1ccncc1 (configuration not stated)
bucket B

Which band does CCC(CC)=NNC(=O)c1ccncc1 fall in?
bucket A

In plain terms, what class is C/C(=N\NC(=O)c1ccncc1)c1cccc(CN(c2ccccc2)c2ccccc2)c1O ?
bucket B

---

# Tested on: Mycobacterium tuberculosis
# Experiment: Antitubercular activity against Mycobacterium tuberculosis H37Rv ATCC 27294 by BACTEC 960 assay
# Format: functional
Flag rule - MIC less than 3 µM flags satisfied; the remaining entries get not satisfied.

Recorded results for 6 compounds are shown here.
>  <Compound>
O=C(N/N=C(\CO)C(O)C(O)C(O)CO)c1ccncc1 (stereo not drawn)

>  <Label class>
satisfied

$$$$
>  <Compound>
NNC(=O)c1ccnc(F)c1

>  <Label class>
satisfied

$$$$
>  <Compound>
Cc1cc(C(=O)NN)ccn1

>  <Label class>
not satisfied

$$$$
>  <Compound>
NNC(=O)c1ccnc(Cl)c1

>  <Label class>
not satisfied

$$$$
>  <Compound>
O=C(N/N=C/C(O)C(O)C(O)CO)c1ccncc1 (stereo not drawn)

>  <Label class>
satisfied

$$$$
>  <Compound>
CCN(CC)c1ccc(/C=N/NC(=O)c2ccncc2)cc1

>  <Label class>
satisfied

$$$$

Confirm or reject: MIC of C/C(=N\NC(=O)c1ccncc1)c1cccc(CN2CCN(c3ccccn3)CC2)c1O lies strictly below 3 µM
satisfied

Consider C/C(=N\NC(=O)c1ccncc1)c1cccc(CN(Cc2ccccc2)Cc2ccccc2)c1O . Does its MIC lie strictly below 3 µM?
satisfied

Hello, I'm reviewing records and need to know if MIC of O=C(NNC1CCC(c2ccccc2)CC1)c1ccncc1 (stereo not drawn) is below 3 µM. Could you check?
satisfied

Quick check: MIC of CCCCCCCCCCCCNNC(=O)c1ccncc1 under 3 µM?
satisfied

---

# Experiment: Selectivity index, ratio of IC50 for african green monkey Vero cells to MIC for Mycobacterium tuberculosis H37Rv ATCC 27294
# Assay type: toxicity, cell-based
# Test context: read-out: Selectivity Index
Quantity kind: selectivity ratio

Record excerpt, results attached:
>  <Compound>
O=Cc1cccc(/C=N/NC(=O)c2ccncc2)c1

>  <Quantity kind>
selectivity ratio

>  <Result>
> 724

$$$$
>  <Compound>
CCCCCCCCCC(=O)NNC(=O)c1ccncc1

>  <Quantity kind>
selectivity ratio

>  <Result>
> 530

$$$$
>  <Compound>
O=C(N/N=C/c1cccc(CO)c1)c1ccncc1

>  <Quantity kind>
selectivity ratio

>  <Result>
> 425

$$$$

Give one value of selectivity ratio per listed compound.
1. O=Cc1ccc(/C=N/NC(=O)c2ccncc2)cc1
2. O=C(NNC1CCC(c2ccccc2)CC1)c1ccncc1 (stereo not given)
3. NNC(=O)c1ccncc1
4. O=C(NN=C1CCC(c2ccccc2)CC1)c1ccncc1 (stereo not given)
5. O=C(N/N=C/c1ccc(CO)cc1)c1ccncc1
6. O=C(NN=C1CCCC1)c1ccncc1

1: > 844; 2: > 454; 3: > 686; 4: > 733; 5: > 729; 6: > 965

Can you look up the measured selectivity ratio of NNC(=O)c1ccnc(NN)c1 for me?
> 478

---

# Experiment: Octanol-water partition co-efficient, log P of the compound by shake-flask method
# Type: physicochemical
logP of 2 or higher: Y. Under 2: N.

>  <Molecule>
O=C(N/N=C/c1ccc(Oc2ccccc2)cc1)c1ccncc1

>  <Label class>
Y

$$$$
>  <Molecule>
O=C(NN=C1CCCC1)c1ccncc1

>  <Label class>
N

$$$$
>  <Molecule>
O=Cc1cccc(/C=N/NC(=O)c2ccncc2)c1

>  <Label class>
N

$$$$
>  <Molecule>
O=Cc1ccc(/C=N/NC(=O)c2ccncc2)cc1

>  <Label class>
N

$$$$
>  <Molecule>
CCCCCCCCCC(=O)NNC(=O)c1ccncc1

>  <Label class>
Y

$$$$

Note: attention shifts to another entry.
Test whether the molecule CCCCCC(C)C(=O)NNC(=O)c1ccncc1 (configuration not stated) records logP of 2 or higher.
Y

---

# Test system: Mycobacterium tuberculosis
# Experiment: Antitubercular activity against Mycobacterium tuberculosis H37Rv ATCC 27294 by BACTEC 960 assay
# Format: functional
For each record, write down the corresponding log10 of MIC.
A value of 2 here means MIC of 100 in µM, since values are log10.

// solved cases for log10 of MIC follow
>  <Compound>
C/C(=N\NC(=O)c1ccncc1)c1cccc(CN2CCCCC2)c1O

>  <Tgt>
Mycobacterium tuberculosis

>  <Numeric readout>
0.66

$$$$
>  <Compound>
CCCCCCCCCC/C=N/NC(=O)c1ccncc1

>  <Tgt>
Mycobacterium tuberculosis

>  <Numeric readout>
0.02

$$$$
>  <Compound>
COC(=O)c1ccc(/C=N/NC(=O)c2ccncc2)cc1

>  <Tgt>
Mycobacterium tuberculosis

>  <Numeric readout>
0.03

$$$$
>  <Compound>
O=C(NNC(O)C(Cl)(Cl)Cl)c1ccncc1 (stereo unspecified)

>  <Tgt>
Mycobacterium tuberculosis

>  <Numeric readout>
-0.85

$$$$
>  <Compound>
C/C(=N\NC(=O)c1ccncc1)c1cccc(CN2CCOCC2)c1O

>  <Tgt>
Mycobacterium tuberculosis

>  <Numeric readout>
0.55

$$$$
>  <Compound>
CCOc1cc(C(=O)NN)ccn1

>  <Tgt>
Mycobacterium tuberculosis

>  <Numeric readout>
2.65

$$$$

Give log10 of MIC for each listed item.
1. NNC(=O)c1ccnc(N)c1
2. Cc1ccccc1OC/C(N)=N/NC(=O)c1ccncc1
3. NNC(=O)c1ccnc(I)c1
4. CC(C)=NNC(=O)c1ccncc1
5. CC(=O)NNC(=O)c1ccncc1
6. CC(=O)C/C(C)=N/NC(=O)c1ccncc1
7. CC(C)/C=N\NC(=O)c1ccncc1
8. C/C=N/NC(=O)c1ccncc1

[1.16, 1.64, 2.40, -0.95, 1.65, 0.56, -0.28, -0.61]

Quick one: give me log10 of MIC for each item below, same order please.
1. O=C(N/N=C/c1cccc(CO)c1)c1ccncc1
2. C/C(=N/NC(=O)c1ccncc1)c1cccc(CN2CCN(Cc3ccc(F)cn3)CC2)c1O

[-0.33, 0.31]

---

Kindly state logP for each of the entries shown.
# Experiment: Octanol-water partition co-efficient, log P of the compound by shake-flask method
# Format: physicochemical

>  <Compound>
NNC(=O)c1ccnc(NN)c1

>  <logP>
-0.541

$$$$
>  <Compound>
NNC(=O)c1ccncc1

>  <logP>
-0.851

$$$$
>  <Compound>
COC(=O)c1ccc(/C=N/NC(=O)c2ccncc2)cc1

>  <logP>
1.32

$$$$
>  <Compound>
O=C(N/N=C/c1cccc(CO)c1)c1ccncc1

>  <logP>
0.902

$$$$
>  <Compound>
O=C(N/N=C/c1ccc(CO)cc1)c1ccncc1

>  <logP>
0.731

$$$$

Could you now look at the following compound, please?
What measured logP goes with O=C(NNC1CCC(c2ccccc2)CC1)c1ccncc1 (stereo unspecified) ?
2.83

---

# Test system: Mycobacterium tuberculosis
# Experiment: Antitubercular activity against Mycobacterium tuberculosis H37Rv ATCC 27294 by BACTEC 960 assay
# Assay type: functional
Quantity kind: MIC (µM)
Give bare numbers, in µM.

>  <Compound>
NNC(=O)c1ccncc1 [ISONIAZID]

>  <MIC (µM)>
0.146

$$$$
>  <Compound>
Cc1ccc(C)n1NC(=O)c1ccncc1

>  <MIC (µM)>
46.5

$$$$
>  <Compound>
O=C(NNC1CCCCC1)c1ccncc1

>  <MIC (µM)>
22.8

$$$$

List reported MIC for each of these compounds:
1. C/C(=N/NC(=O)c1ccncc1)c1cccc(CN2CCNCC2)c1O
2. O=C(NNC(=O)C(O)C(OC1OC(CO)C(O)C(O)C1O)C(O)CO)c1ccncc1 (stereo not drawn)
3. CC(=O)Nc1cc(C(=O)NN)ccn1
4. O=C(NN=C1CCC(c2ccccc2)CC1)c1ccncc1 (stereo not drawn)
5. O=Cc1cccc(/C=N/NC(=O)c2ccncc2)c1
6. CC1CCCC(NNC(=O)c2ccncc2)C1 (stereo not drawn)

8.61
0.346
2150
0.27
0.28
17.1
